Test system: Escherichia coli
Test summary: Antibacterial activity against Escherichia coli ATCC 13607 assessed as growth inhibition after 16-24 hr by two-fold serial dilution method
Type: functional
Each item that follows carries a reported -logMIC.
Please state the value as a number alone, without comment.

Incoming: Which value of -logMIC has been reported for CC(=O)C1(/N=N/c2ccc(C(=O)O)cc2)N=C1C (configuration not stated) in the records?
Outgoing: 4.341

---

Tested on: Escherichia coli
Test summary: Antibacterial activity against Escherichia coli ATCC 13607 assessed as growth inhibition after 16-24 hr by two-fold serial dilution method
Format: functional
Each item that follows carries a reported -logMIC.
Please state the value as a number alone, without comment.

CC(=O)C1(/N=N/c2ccc([N+](=O)[O-])cc2)N=C1C (stereo unspecified) : 4.253

Incoming: State its -logMIC on Escherichia coli: CC(=O)C1(/N=N/c2ccccc2C)N=C1C (stereo unspecified)
Outgoing: 4.378

Incoming: State its -logMIC on Escherichia coli: CC(=O)C1(/N=N/c2cccc(C(=O)O)c2)N=C1C (stereo unspecified)
Outgoing: 4.223

Incoming: State its -logMIC on Escherichia coli: CC(=O)C1(/N=N/c2cccc([N+](=O)[O-])c2)N=C1C (stereo unspecified)
Outgoing: 4.257

Incoming: State its -logMIC on Escherichia coli: CC(=O)C1(/N=N/c2ccc(Br)cc2)N=C1C (stereo unspecified)
Outgoing: 4.414

Incoming: State its -logMIC on Escherichia coli: CC(=O)C1(/N=N/c2cccc(Br)c2)N=C1C (stereo unspecified)
Outgoing: 4.441
